- measurement.target: Human JAK2 (Homo sapiens (Human))
- Sequence (O60674 whole entry): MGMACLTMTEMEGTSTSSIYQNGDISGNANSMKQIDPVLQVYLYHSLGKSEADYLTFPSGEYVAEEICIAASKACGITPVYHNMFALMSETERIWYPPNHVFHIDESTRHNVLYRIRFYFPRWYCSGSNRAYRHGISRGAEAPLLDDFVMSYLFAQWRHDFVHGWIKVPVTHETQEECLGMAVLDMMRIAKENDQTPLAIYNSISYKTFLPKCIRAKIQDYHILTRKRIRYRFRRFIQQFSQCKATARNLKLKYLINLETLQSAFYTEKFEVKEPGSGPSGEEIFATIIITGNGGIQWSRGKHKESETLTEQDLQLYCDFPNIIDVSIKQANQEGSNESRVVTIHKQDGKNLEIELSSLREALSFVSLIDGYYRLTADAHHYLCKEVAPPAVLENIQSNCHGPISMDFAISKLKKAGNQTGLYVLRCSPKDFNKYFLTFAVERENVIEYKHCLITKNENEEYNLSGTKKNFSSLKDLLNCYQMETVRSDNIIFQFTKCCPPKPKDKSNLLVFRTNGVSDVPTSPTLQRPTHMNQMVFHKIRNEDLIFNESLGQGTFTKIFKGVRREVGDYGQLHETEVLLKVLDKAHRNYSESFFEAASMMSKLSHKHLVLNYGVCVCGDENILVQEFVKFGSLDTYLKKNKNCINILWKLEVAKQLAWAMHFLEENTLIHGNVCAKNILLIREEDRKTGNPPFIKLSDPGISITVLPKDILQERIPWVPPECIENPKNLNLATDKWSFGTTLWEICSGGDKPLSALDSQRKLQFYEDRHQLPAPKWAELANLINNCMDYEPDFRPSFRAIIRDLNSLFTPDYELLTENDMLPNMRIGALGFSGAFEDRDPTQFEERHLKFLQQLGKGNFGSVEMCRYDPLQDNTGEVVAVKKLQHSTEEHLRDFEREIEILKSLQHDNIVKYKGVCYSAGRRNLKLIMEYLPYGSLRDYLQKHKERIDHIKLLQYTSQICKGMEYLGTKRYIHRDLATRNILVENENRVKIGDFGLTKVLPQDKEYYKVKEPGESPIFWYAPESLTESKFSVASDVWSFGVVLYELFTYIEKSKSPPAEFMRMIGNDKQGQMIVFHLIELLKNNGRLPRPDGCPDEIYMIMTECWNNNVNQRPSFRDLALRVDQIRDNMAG
- experiment: In vitro kinase inhibition test, JAK2 (33P-ATP filter scintillation)
- Type: biochemical
- setup.conditions: compound at 1 uM; read-out: JAK2 kinase-phosphorylation inhibitory level (% inhibition)
readout.label: inhibition at 1 µM (%)

(P) CN(c1ncnc2[nH]ccc12)[C@H]1CN(C(=O)c2cccc(C#N)c2)CC12CC2
(Q) CC(C)COC(=O)N1CC(N(C)c2ncnc3[nH]ccc23)C2(CC2)C1 (stereo not drawn)
(R) CN(c1ncnc2[nH]ccc12)C1CN(C(=S)CC#N)CC12CC2 (stereo not drawn)
Inquiry: Rank the 3 compounds: largest inhibition at 1 µM first, smallest last. Answer format: list of labels, ordered as asked.
Reply text: R, Q, P
(R: -3%, Q: -9%, P: -15%)

----------
- measurement.target: Human TYK2 (Homo sapiens (Human), UniProt P29597)
- Sequence (P29597 whole entry): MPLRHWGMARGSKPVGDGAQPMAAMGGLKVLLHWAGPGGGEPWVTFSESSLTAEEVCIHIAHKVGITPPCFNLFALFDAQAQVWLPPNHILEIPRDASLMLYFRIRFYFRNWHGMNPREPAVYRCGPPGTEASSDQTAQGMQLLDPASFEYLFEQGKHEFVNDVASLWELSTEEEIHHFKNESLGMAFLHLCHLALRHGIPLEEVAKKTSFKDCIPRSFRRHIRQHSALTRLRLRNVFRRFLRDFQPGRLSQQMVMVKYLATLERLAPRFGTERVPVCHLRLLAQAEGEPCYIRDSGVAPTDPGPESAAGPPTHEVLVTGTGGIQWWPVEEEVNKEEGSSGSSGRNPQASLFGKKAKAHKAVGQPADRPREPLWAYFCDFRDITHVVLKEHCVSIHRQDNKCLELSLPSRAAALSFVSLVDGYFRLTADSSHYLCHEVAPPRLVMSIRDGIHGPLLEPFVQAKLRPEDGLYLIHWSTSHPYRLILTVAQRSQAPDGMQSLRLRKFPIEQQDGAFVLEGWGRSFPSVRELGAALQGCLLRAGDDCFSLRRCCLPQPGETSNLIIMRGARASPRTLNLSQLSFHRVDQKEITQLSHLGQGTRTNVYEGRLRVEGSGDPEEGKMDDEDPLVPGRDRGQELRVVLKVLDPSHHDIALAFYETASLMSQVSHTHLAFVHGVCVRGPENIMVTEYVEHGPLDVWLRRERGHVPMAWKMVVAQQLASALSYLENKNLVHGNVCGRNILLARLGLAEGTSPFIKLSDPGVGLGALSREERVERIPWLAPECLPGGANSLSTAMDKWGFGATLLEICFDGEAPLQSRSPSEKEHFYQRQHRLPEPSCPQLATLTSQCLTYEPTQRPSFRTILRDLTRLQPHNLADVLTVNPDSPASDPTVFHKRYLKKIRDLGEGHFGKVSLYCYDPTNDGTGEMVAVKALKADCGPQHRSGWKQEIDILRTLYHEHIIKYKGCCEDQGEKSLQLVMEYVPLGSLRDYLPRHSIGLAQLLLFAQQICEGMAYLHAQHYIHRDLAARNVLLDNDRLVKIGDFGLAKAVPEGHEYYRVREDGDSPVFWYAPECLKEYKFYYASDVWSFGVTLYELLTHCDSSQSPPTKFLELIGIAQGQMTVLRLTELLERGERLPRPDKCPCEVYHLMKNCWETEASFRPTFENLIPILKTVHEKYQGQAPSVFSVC
- experiment: In vitro kinase inhibition test, TYK2 (33P-ATP filter scintillation)
- Type: biochemical
- setup.conditions: compound at 1 uM; read-out: TYK2 kinase-phosphorylation inhibitory level (% inhibition)
readout.label: inhibition at 1 µM (%)

(1) CN(c1ncnc2[nH]ccc12)[C@H]1CN(C(=O)Nc2cccc(Cl)c2Cl)CC12CC2
(2) CCCS(=O)(=O)N1C[C@H](N(C)c2ncnc3[nH]ccc23)C2(CC2)C1
(3) CC(C)COC(=O)N1CC(N(C)c2ncnc3[nH]ccc23)C2(CC2)C1 (centres unmarked)
Inquiry: Descending by inhibition at 1 µM please, for everything listed above. List the labels in the requested order.
Reply text: 2, 1, 3

(A) CC(C)CC(=O)N1C[C@H](N(C)c2ncnc3[nH]ccc23)C2(CC2)C1
(B) CCS(=O)(=O)N1C[C@H](N(C)c2ncnc3[nH]ccc23)C2(CC2)C1
Inquiry: Please state the entry with greater inhibition at 1 µM among A and B . Give the label of your selection.
Reply text: B
(B: 88%, A: 46%)

(a) CN(c1ncnc2[nH]ccc12)[C@H]1CN(C(=O)Nc2ccccc2)CC12CC2
(b) CN(c1ncnc2[nH]ccc12)[C@H]1CN(C(=O)Nc2ccc(F)cc2)CC12CC2
Inquiry: Of the two listed items, which has the higher inhibition at 1 µM? First: a Second: b // caller expects the label of the chosen entry
Reply text: a
(a: 78%, b: 47%)

----------
- measurement.target: Human JAK3 (Homo sapiens (Human))
- Sequence (P52333 whole entry): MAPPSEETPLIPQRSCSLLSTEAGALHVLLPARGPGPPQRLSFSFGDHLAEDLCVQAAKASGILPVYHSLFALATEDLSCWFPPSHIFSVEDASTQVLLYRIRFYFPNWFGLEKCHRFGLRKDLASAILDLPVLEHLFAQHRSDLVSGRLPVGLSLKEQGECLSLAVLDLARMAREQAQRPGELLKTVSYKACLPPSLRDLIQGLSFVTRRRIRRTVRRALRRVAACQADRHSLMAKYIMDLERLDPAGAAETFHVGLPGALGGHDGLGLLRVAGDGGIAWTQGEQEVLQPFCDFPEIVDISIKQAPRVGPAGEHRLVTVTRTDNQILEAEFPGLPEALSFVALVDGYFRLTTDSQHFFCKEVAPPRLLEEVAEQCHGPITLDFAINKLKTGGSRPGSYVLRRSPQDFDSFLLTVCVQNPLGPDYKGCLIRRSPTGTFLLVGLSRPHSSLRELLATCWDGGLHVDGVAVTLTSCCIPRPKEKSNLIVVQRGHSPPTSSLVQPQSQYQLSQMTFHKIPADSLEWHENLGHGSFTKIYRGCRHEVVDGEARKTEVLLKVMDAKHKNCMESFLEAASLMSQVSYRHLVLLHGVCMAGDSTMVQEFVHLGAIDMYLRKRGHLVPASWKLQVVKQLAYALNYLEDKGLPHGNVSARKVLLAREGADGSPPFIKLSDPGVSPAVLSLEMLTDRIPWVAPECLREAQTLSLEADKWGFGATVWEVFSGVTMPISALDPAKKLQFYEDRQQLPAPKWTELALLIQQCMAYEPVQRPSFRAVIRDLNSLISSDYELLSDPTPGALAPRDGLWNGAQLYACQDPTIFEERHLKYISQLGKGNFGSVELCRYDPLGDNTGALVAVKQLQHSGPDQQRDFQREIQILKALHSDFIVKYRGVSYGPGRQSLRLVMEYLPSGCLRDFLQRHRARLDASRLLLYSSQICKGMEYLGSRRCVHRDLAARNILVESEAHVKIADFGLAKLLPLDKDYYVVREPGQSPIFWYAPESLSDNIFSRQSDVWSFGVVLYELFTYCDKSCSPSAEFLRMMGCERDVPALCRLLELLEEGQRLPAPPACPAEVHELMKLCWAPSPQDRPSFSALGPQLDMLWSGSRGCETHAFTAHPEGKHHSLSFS
- experiment: In vitro kinase inhibition test, JAK3 (33P-ATP filter scintillation)
- Assay type: biochemical
- setup.conditions: compound at 1 uM; read-out: JAK3 kinase-phosphorylation inhibitory level (% inhibition)
readout.label: inhibition at 1 µM (%)

CN(c1ncnc2[nH]ccc12)[C@H]1CN(C(=O)Nc2ccccc2-c2ccccc2)CC12CC2 = 14

(1) CN(c1ncnc2[nH]ccc12)[C@H]1CN(C(=O)c2cccc(C(F)(F)F)c2)CC12CC2
(2) CC(=O)NCC(=O)N1C[C@H](N(C)c2ncnc3[nH]ccc23)C2(CC2)C1
(3) CCCCNC(=O)N1C[C@H](N(C)c2ncnc3[nH]ccc23)C2(CC2)C1
(4) COCC(=O)N1CC(N(C)c2ncnc3[nH]ccc23)C2(CC2)C1 (stereo not drawn)
Inquiry: Order these by inhibition at 1 µM, descending, and give the full ranking. Lab note: final answer is the ordered label list.
Reply text: 3, 2, 1, 4
(3: 31%, 2: 8%, 1: 5%, 4: 3%)

(A) CN(c1ncnc2[nH]ccc12)[C@H]1CN(S(=O)(=O)c2ccc(C(F)(F)F)cc2)CC12CC2
(B) CN(c1ncnc2[nH]ccc12)[C@H]1CN(C(=O)Nc2ccccc2)CC12CC2
(C) CN(c1ncnc2[nH]ccc12)[C@H]1CN(C(=S)Nc2cc(C(F)(F)F)cc(C(F)(F)F)c2)CC12CC2
Inquiry: Sequence the entries by inhibition at 1 µM, beginning with the highest number. # the answer lists labels in the order requested
Reply text: B, A, C
